Data provenance is BindingDB's records for doi:10.7270/Q2QF8R9S.

study target: Muscarinic acetylcholine receptor M1 (Rattus norvegicus, UniProt P08482)
Sequence (P08482 whole entry): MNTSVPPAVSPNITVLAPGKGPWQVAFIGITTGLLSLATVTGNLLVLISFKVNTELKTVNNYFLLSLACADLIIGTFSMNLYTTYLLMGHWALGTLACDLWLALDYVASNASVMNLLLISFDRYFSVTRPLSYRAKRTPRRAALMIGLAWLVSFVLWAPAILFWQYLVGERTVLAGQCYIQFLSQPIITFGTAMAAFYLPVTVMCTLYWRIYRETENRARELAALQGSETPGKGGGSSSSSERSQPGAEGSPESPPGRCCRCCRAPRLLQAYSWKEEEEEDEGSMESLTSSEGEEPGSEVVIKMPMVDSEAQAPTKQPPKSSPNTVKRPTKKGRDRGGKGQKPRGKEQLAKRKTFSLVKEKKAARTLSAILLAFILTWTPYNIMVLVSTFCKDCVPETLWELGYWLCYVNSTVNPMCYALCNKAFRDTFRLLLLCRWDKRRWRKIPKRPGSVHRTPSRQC
assay protocol: structure-activity potentiation of ACh at M1 – cell-based, calcium mobilization, CHO-K1, SAR follow-up (AID 2651)
condition description: inactive by the depositor's call
measured metric: EC50

>>> value_reported("Cc1cc(NC(=O)CS(=O)(=O)c2cn(Cc3cccc(-c4ccc(Cl)nc4)c3)c3ccccc23)no1")
"30 µM"

###

study target: Muscarinic acetylcholine receptor M1 (Rattus norvegicus, UniProt P08482)
assay protocol: structure-activity potentiation of ACh at M1 – cell-based, calcium mobilization, CHO-K1, SAR follow-up (AID 2651)
Readings of EC50 for the listed compounds
measured metric: EC50 (µM)

>>> value_reported("Cc1cc(NC(=O)CS(=O)(=O)c2cn(Cc3cc(-c4cc[nH]n4)ccc3F)c3ccccc23)no1")
3.07
>>> value_reported("Cc1cc(NC(=O)CS(=O)(=O)c2cn(Cc3cccc(-c4cn[nH]c4)c3)c3ccccc23)no1")
2.19
>>> value_reported("Cc1cc(NC(=O)CS(=O)(=O)c2cn(Cc3cc(Br)ccc3F)c3ccccc23)no1")
1.38
>>> value_reported("Cc1cc(NC(=O)CS(=O)(=O)c2cn(Cc3cccc(-c4cc[nH]n4)c3F)c3ccccc23)no1")
4.4
>>> value_reported("Cc1cc(NC(=O)CS(=O)(=O)c2cn(Cc3cccc(Cl)c3F)c3ccccc23)no1")
5.1
